ASSAY TARGET: T1, IRP1 (iron regulatory protein 1) (rabbit, UniProt Q01059 1-889)
T1 sequence: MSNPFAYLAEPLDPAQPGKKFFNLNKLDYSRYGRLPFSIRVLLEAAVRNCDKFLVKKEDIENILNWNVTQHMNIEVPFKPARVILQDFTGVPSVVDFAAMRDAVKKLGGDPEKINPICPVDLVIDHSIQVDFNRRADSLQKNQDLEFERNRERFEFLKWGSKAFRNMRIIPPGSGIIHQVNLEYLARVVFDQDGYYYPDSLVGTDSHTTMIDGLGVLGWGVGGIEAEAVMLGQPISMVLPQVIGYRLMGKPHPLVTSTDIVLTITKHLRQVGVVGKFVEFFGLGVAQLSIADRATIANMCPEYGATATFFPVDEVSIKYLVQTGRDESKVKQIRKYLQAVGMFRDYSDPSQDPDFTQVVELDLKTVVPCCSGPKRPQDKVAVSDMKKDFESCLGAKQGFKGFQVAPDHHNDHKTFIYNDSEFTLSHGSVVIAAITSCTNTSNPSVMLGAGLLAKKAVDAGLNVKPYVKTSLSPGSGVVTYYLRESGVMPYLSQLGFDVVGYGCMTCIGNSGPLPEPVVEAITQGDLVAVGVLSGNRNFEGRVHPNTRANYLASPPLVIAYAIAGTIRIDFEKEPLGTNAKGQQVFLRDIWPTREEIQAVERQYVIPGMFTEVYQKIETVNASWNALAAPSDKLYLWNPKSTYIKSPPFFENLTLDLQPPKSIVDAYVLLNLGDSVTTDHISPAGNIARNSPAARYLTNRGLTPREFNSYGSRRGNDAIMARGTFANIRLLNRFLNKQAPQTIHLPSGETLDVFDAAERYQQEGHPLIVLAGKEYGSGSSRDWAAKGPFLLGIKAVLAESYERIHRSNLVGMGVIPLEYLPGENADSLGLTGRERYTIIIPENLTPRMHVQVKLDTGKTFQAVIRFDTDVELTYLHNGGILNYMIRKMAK
TEST: stopped-flow fluorescence anisotropy (koff/kon); 150 mM KCl; kon 209, koff 6.3; 40 mM HEPES pH 7.2, 100 mM KCl, 1 mM MgCl2 (Methods; not listed in the Figure 2 legend), 5% glycerol, 2% 2-mercaptoethanol, 25 C; RNA 50 nM with IRP1 0.05-1 uM; eIF4F 0.1 uM with RNA 0.1-0.5 uM
EXPERIMENTAL CONTEXT: protein: recombinant; tags: Ni-chelate purified; hairpin with mid-helix bulge C and hexaloop
pKd: −log10 of the molar value.

[
  {
    "BINDER": "GUUCUUGCUUCAACAGUGUUUGAACGGAAC (structured_RNA) [FRT IRE-RNA, fluorescein labeled (FIFRT IRE-RNA)]",
    "pKd": 7.52
  }
]
